System: Parastagonospora nodorum
Assay: Antifungal activity against Stagonospora nodorum infected in wheat seedlings at 200 ppm relative to control
Format: functional
For each record, write down the corresponding Activity.
Numbers only, in %.

CC[C@H](C)Cn1c(-c2c(F)cc(OC)cc2F)c(Cl)nc(-n2cccn2)c1=O
100
CC(C)Cn1c(-c2c(F)cccc2F)cnc(-n2cccn2)c1=O
0
CC[C@H](C)Cn1c(-c2c(F)cccc2F)c(Cl)nc(-n2nccn2)c1=O
0

Batch: Activity for all items listed.
1. O=c1c(-n2cccn2)nc(Cl)c(-c2c(F)cc(F)cc2F)n1C1CCCCC1
2. CC(C)Cn1c(C2CC2)c(Cl)nc(-n2cccn2)c1=O

[100, 0]

Given the compound `CC(C)Cn1c(-c2c(F)cccc2F)c(Cl)nc(-c2ccccn2)c1=O` , what is its reported Activity?
99

Each recorded value in this set is attributed to ChEMBL document CHEMBL3739347.
